# experimental target: CCR9 (Homo sapiens)
# Construct: purchased Promega (in-house HiBiT-GPCR construct library, NanoBRET)
# Sequence (P51686 whole entry): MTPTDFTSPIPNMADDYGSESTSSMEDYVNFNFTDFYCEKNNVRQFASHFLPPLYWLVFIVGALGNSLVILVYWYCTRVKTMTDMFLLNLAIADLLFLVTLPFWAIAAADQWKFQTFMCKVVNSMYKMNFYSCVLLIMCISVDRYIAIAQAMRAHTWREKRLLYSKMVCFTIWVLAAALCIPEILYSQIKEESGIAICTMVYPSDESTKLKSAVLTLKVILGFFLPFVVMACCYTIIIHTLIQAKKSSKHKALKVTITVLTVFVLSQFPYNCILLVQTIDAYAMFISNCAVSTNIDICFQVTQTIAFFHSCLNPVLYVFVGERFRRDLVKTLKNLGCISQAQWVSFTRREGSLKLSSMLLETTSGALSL
# run description: NanoBRET screen HiBiT-CCR9 in HEK293
# Assay type: binding
# assay setup: CCR9; tracer 0.1μM
readout name: NanoBRET Fold Response
Respond with the number and no other words.

Worked cases, answers included:
{"compound": "CCCn1c(=O)c2[nH]c(-c3ccc(OCC(=O)NCCNC(=O)CCOCCNC(=O)c4ccc(CNC(=O)CCc5ccc6n5[B-](F)(F)[N+]5=C(c7ccc[nH]7)C=CC5=C6)cc4)cc3)nc2n(CCC)c1=O [XAC-3-NB590]", "experimental target": "CCR9 (Homo sapiens)", "NanoBRET Fold Response": 0.95}
{"compound": "O=C(CCc1ccc2n1[B-](F)(F)[N+]1=C(c3ccc[nH]3)C=CC1=C2)NCCOCCOCCNC(=O)OCCOCCN1CCN(C2=Nc3ccccc3Sc3ccccc32)CC1 [Quetiapine-a-2-NB590]", "experimental target": "CCR9 (Homo sapiens)", "NanoBRET Fold Response": 1.05}
{"compound": "Cc1nc2n(c(=O)c1CCN1CCC(c3noc4cc(F)ccc34)CC1)CCCC2OC(=O)NCCOCCOCCOCCOCCNC(=O)CCc1ccc2n1[B-](F)(F)[N+]1=C(c3ccc[nH]3)C=CC1=C2 (stereo not drawn) [Risperidone-2-NB590]", "experimental target": "CCR9 (Homo sapiens)", "NanoBRET Fold Response": 1.02}

NanoBRET Fold Response recorded for this compound, Cc1cc2c(s1)Nc1ccccc1N=C2N1CCN(CCCNC(=O)CCOCCOCCOCCOCCNC(=O)CCc2ccc3n2[B-](F)(F)[N+]2=C(c4ccc[nH]4)C=CC2=C3)CC1 [Olanzapine-a-2-NB590] , is 1.03

NanoBRET Fold Response reading for O=C(CCOCCOCCOCCOCCNC(=O)CCc1ccc2n1[B-](F)(F)[N+]1=C(c3ccc[nH]3)C=CC1=C2)NCCCN1CCN(C2=Nc3ccccc3Oc3ccc(Cl)cc32)CC1 [Loxapine-a-2-NB590] : 1.02

NanoBRET Fold Response in this record for CC(C)N(CC[C@H](c1ccccc1)c1cc(CCNC(=O)c2ccc(CNC(=O)CCc3ccc4n3[B-](F)(F)[N+]3=C(c5ccc[nH]5)C=CC3=C4)cc2)ccc1O)C(C)C [Tolterodine-BZ-NB590] : 0.74

---

# experimental target: F2R (Homo sapiens, UniProt P25116)
# Construct: purchased Promega (in-house HiBiT-GPCR construct library, NanoBRET)
# Sequence (P25116 22-425): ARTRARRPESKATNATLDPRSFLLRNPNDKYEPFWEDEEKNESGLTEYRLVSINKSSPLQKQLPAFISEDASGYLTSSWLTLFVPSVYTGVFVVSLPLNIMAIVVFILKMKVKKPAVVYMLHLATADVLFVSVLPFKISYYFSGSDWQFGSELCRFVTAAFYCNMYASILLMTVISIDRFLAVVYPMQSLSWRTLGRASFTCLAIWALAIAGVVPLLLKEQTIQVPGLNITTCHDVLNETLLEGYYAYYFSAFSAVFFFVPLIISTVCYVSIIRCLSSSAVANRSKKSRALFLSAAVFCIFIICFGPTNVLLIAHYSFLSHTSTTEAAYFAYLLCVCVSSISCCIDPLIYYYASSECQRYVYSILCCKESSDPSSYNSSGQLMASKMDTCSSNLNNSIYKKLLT
# run description: NanoBRET screen HiBiT-F2R in HEK293
# Type: binding
# assay setup: F2R; tracer 0.1μM
In this section, each of the compounds is paired with its reported NanoBRET Fold Response.
Please state the value as a number alone, without comment.

Below: 8 compounds and their reported NanoBRET Fold Response.
{"compound": "CCCn1c(=O)c2[nH]c(-c3ccc(OCC(=O)NCCNC(=O)CCOCCNC(=O)c4ccc(CNC(=O)CCc5ccc6n5[B-](F)(F)[N+]5=C(c7ccc[nH]7)C=CC5=C6)cc4)cc3)nc2n(CCC)c1=O", "experimental target": "F2R (Homo sapiens, UniProt P25116)", "experimental value": 1.20}
{"compound": "O=C(CCc1ccc2n1[B-](F)(F)[N+]1=C(c3ccc[nH]3)C=CC1=C2)NCc1ccc(C(=O)NCCOCCC(=O)N[C@@H]2CC[C@@]3(O)[C@H]4Cc5ccc(O)c6c5[C@@]3(CCN4CC3CC3)[C@H]2O6)cc1 [Naltrexone-3-NB590]", "experimental target": "F2R (Homo sapiens, UniProt P25116)", "experimental value": 1.02}
{"compound": "O=C(CCc1ccc2n1[B-](F)(F)[N+]1=C(c3ccc[nH]3)C=CC1=C2)NCCOCCOCCNC(=O)OCCOCCN1CCN(C2=Nc3ccccc3Sc3ccccc32)CC1", "experimental target": "F2R (Homo sapiens, UniProt P25116)", "experimental value": 1.09}
{"compound": "N#CN=C(NCCCOc1cccc(CN2CCCCC2)c1)NCCNC(=O)CCOCCOCCOCCOCCNC(=O)CCc1ccc2n1[B-](F)(F)[N+]1=C(c3ccc[nH]3)C=CC1=C2", "experimental target": "F2R (Homo sapiens, UniProt P25116)", "experimental value": 1.06}
{"compound": "CC(C)N(CC[C@H](c1ccccc1)c1cc(CCNC(=O)c2ccc(CNC(=O)CCc3ccc4n3[B-](F)(F)[N+]3=C(c5ccc[nH]5)C=CC3=C4)cc2)ccc1O)C(C)C", "experimental target": "F2R (Homo sapiens, UniProt P25116)", "experimental value": 1.09}
{"compound": "O=C(CCOCCOCCOCCOCCNC(=O)CCc1ccc2n1[B-](F)(F)[N+]1=C(c3ccc[nH]3)C=CC1=C2)NCCCN1CCN(C2=Nc3ccccc3Oc3ccc(Cl)cc32)CC1", "experimental target": "F2R (Homo sapiens, UniProt P25116)", "experimental value": 0.97}
{"compound": "Cc1cc2c(s1)Nc1ccccc1N=C2N1CCN(CCCNC(=O)CCOCCOCCOCCOCCNC(=O)CCc2ccc3n2[B-](F)(F)[N+]2=C(c4ccc[nH]4)C=CC2=C3)CC1", "experimental target": "F2R (Homo sapiens, UniProt P25116)", "experimental value": 1.01}
{"compound": "COc1ccccc1N1CCN(CCCCN2C(=O)c3ccc(CNC(=O)CCOCCOCCOCCOCCNC(=O)CCc4ccc5n4[B-](F)(F)[N+]4=C(c6ccc[nH]6)C=CC4=C5)cc3C2=O)CC1", "experimental target": "F2R (Homo sapiens, UniProt P25116)", "experimental value": 1.07}

The compound `COc1ccccc1N1CCN(CCCCN2C(=O)c3ccc(CNC(=O)CCOCCNC(=O)c4ccc(CNC(=O)CCc5ccc6n5[B-](F)(F)[N+]5=C(c7ccc[nH]7)C=CC5=C6)cc4)cc3C2=O)CC1` showed NanoBRET Fold Response equal to 0.97

Record `CC(C)N(CC[C@H](c1ccccc1)c1cc(CCNC(=O)CCOCCOCCOCCOCCNC(=O)CCc2ccc3n2[B-](F)(F)[N+]2=C(c4ccc[nH]4)C=CC2=C3)ccc1O)C(C)C` . Reported NanoBRET Fold Response: 1.20

Field NanoBRET Fold Response (entry Cc1nc2n(c(=O)c1CCN1CCC(c3noc4cc(F)ccc34)CC1)CCCC2OC(=O)NCCOCCOCCOCCOCCNC(=O)CCc1ccc2n1[B-](F)(F)[N+]1=C(c3ccc[nH]3)C=CC1=C2 (centres unmarked) ) reads 0.97

The measurements presented in this section are drawn from paper PMC8151276.
